Molecular target: neutrophil elastase (Homo sapiens)
Sequence (P08246 30-247 limits assumed): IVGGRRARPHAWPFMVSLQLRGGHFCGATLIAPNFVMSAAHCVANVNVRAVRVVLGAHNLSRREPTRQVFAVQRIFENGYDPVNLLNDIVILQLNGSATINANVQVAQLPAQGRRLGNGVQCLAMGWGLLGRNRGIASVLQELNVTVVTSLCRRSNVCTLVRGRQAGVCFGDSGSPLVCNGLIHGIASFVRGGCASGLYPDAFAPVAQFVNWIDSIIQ
Assay: Human Neutrophil Elastase Assay
Settings: substrate MeOSuc-Ala-Ala-Pro-Val-AMC, pH 7.5, room temperature
Property label: log10(IC50) (log10 of the value in nM)

1. CN(Cc1cnn(C)c1)C(=O)CN1C(=O)N(c2cccc(C(F)(F)F)c2)C2=C(C(=O)CCC2)C1c1ccc(C#N)cc1 (stereo not drawn) : 0.46
2. CS(=O)(=O)N1C(=O)N(c2cccc(C(F)(F)F)c2)C2=C(C(=O)CCC2)C1c1ccc(C#N)cc1Cl (stereo not drawn) : 0.83
3. N#Cc1ccc(C2C3=C(CCCC3=O)N(c3cccc(C(F)(F)F)c3)C(=O)N2CC(=O)N2CCn3cccc3C2)cc1 (stereo not drawn) : 0.79
4. CC(C)(CO)NC(=O)N1C(=O)N(c2cccc(C(F)(F)F)c2)C2=C(C(=O)CCC2)C1c1ccc(C#N)cc1 (stereo not drawn) : 0.38
5. Cc1nnc(CNC(=O)CN2C(=O)N(c3cccc(C(F)(F)F)c3)C3=C(C(=O)CCC3)C2c2ccc(C#N)cc2)o1 (stereo not drawn) : 0.85
6. N#Cc1ccc(C2NC(=O)N(c3cccc(C(F)(F)F)c3)C3=C2C(=O)CC(c2ccc(C(F)(F)F)cc2)C3)cc1 (stereo not drawn) : 2.33
7. CC(C)(O)CNC(=O)CN1C(=O)N(c2cccc(C(F)(F)F)c2)C2=C(C(=O)CCC2)C1c1ccc(C#N)cc1 (stereo not drawn) : 0.91
8. N#Cc1ccc(C2C3=C(CCCC3=O)N(c3cccc(C(F)(F)F)c3)C(=O)N2CC(=O)N2CC(=O)N3CCCCC3C2)cc1 (stereo not drawn) : 1.55
9. N#Cc1ccc(C2C3=C(CCCC3=O)N(c3cccc(C(F)(F)F)c3)C(=O)N2CC(=O)N2CCC(O)C2)cc1 (stereo not drawn) : 0.32
10. CN1CCC(NC(=O)CN2C(=O)N(c3cccc(C(F)(F)F)c3)C3=C(C(=O)CCC3)C2c2ccc(C#N)cc2)CC1 (stereo not drawn) : 1.23
11. N#Cc1ccc(C2C3=C(CCCC3=O)N(c3cccc(C(F)(F)F)c3)C(=O)N2CC(=O)N2CCNC(=O)C2)cc1 (stereo not drawn) : 0.32
12. Cn1ccc(CN2C(=O)N(c3cccc(C(F)(F)F)c3)C3=C(C(=O)CCC3)C2c2ccc(C#N)cc2)n1 (stereo not drawn) : 1.05
13. CN(C)CCN(C)C(=O)N1C(=O)N(c2cccc(C(F)(F)F)c2)C2=C(C(=O)CCC2)C1c1ccc(C#N)cc1 (stereo not drawn) : 1.37
14. N#Cc1ccc(C2C3=C(CCCC3=O)N(c3cccc(C(F)(F)F)c3)C(=O)N2CC(=O)N2CCN3CCCC3C2)cc1 (stereo not drawn) : 0.90
15. COC(=O)c1ccc(CN2C(=O)N(c3cccc(C(F)(F)F)c3)C3=C(C(=O)CCC3)C2c2ccc(C#N)cc2)o1 (stereo not drawn) : 1.46
16. N#Cc1ccc(C2C3=C(CCCC3=O)N(c3cccc(C(F)(F)F)c3)C(=O)N2CC(=O)NCC2CCCOC2)cc1 (stereo not drawn) : 1.00
17. CC1(C)CC(=O)C2=C(C1)N(c1cccc(C(F)(F)F)c1)C(=O)NC2c1ccc(C#N)cc1 (stereo not drawn) : 1.83
18. N#Cc1ccc(C2NC(=O)N(c3cccc(C(F)(F)F)c3)C3=C2C(=O)CCC3)c(Cl)c1 (stereo not drawn) : 1.53
19. CN1CCC2(CCN(C(=O)CN3C(=O)N(c4cccc(C(F)(F)F)c4)C4=C(C(=O)CCC4)C3c3ccc(C#N)cc3)C2)C1 (stereo not drawn) : 0.76
20. N#Cc1ccc(C2C3=C(CCCC3=O)N(c3cccc(C(F)(F)F)c3)C(=O)N2CC(=O)N2CC[S+]([O-])CC2)cc1 (stereo not drawn) : 0.32
21. COCCN1C(=O)N(c2cccc(C(F)(F)F)c2)C2=C(C(=O)CCC2)C1c1ccc(C#N)cc1 (stereo not drawn) : 0.94
22. COC(=O)CCCS(=O)(=O)N1C(=O)N(c2cccc(C(F)(F)F)c2)C2=C(C(=O)CCC2)C1c1ccc(C#N)cc1 (stereo not drawn) : 0.72
